assay: Toxicity, median lethal dose (Litchfield and Wilcoxon); set-up: species or system Mouse; albino mice (NMRI); settings: in vivo, po; mouse
Give LD50 for every item shown.
One number for each entry, in mg/kg.

Sure, the documented LD50 for Cc1nnc2n1-c1sc(Cl)cc1C(c1ccccc1Cl)=NC2 [F, reference compound] is 2300

// LD50 value for Cc1nnc2n1-c1sc(Cl)cc1C(c1ccccc1Br)=NC2 [G, reference compound] : 2200

Alright, here's another compound for you.
The reported value for CCc1cc2c(s1)-n1c(C)nnc1CN=C2c1ccccc1Cl [E, reference compound] in terms of LD50 is 3070

* * *

test: Toxicity, median lethal dose (Litchfield and Wilcoxon); design: species or system Mouse; albino mice (NMRI); conditions: in vivo, po; mouse
Parameter: LD50

The measured LD50 associated with Cc1nnc2n1-c1sc(Br)cc1C(c1ccccc1Cl)=NC2 [A] reads > 3500 mg/kg

LD50 reported for this compound Cc1nnc2n1-c1sc(Br)cc1C(c1ccccc1Br)=NC2 [C] : > 3500 mg/kg

Further cases:
Value of measured LD50 for the entry Cc1nnc2n1-c1sc(Br)cc1C(c1ccccc1F)=NC2 [B] : > 3300 mg/kg
